# Test system: P. aeruginosa PAO1 cells
# test.name: LC–MS quantification of intracellular accumulation, PAO1;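 further: slope of accumulation versus external concentration fitted as a line through zero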
# conditions.used: 40 min incubation, 10-80 µM
Structures can show the parent of a compound that is named as a salt.
Please note: criterion met applies when Concentration slopes of accumulation, PAO1_40 min is 10 or greater, and criterion not met applies otherwise.

These recorded examples may help you get a feel for the data.
{"compound": "COc1ccc(CCN(C)CCCC(C#N)(c2ccc(OC)c(OC)c2)C(C)C)cc1OC (stereo not drawn) [OU-0000734, Verapamil HCl]", "class.name": "criterion met"}
{"compound": "CCn1cc(C(=O)O)c(=O)c2cc(F)c(N3CCN(C)CC3)cc21 [OU-0000619, PEFLOXACINE MESYLATE]", "class.name": "criterion met"}
{"compound": "N[C@@H](CC(=O)N1CCn2c(nnc2C(F)(F)F)C1)Cc1cc(F)c(F)cc1F [OU-0000833, Sitagliptin Monophosphate Monohydrate]", "class.name": "criterion not met"}
{"compound": "Cc1cc(C)nc(NS(=O)(=O)c2ccc(N)cc2)n1", "class.name": "criterion not met"}
{"compound": "COc1cnc(NS(=O)(=O)c2ccc(N)cc2)nc1", "class.name": "criterion not met"}
{"compound": "COc1c(N2C[C@@H]3CCCN[C@@H]3C2)c(F)cc2c(=O)c(C(=O)O)cn(C3CC3)c12 [OU-0000626, MOXIFLOXACIN HYDROCHLORIDE]", "class.name": "criterion not met"}

Query compound follows.
Q. Tell me whether Concentration slopes of accumulation, PAO1_40 min is at least 10 here: CCn1cc(C(=O)O)c(=O)c2cc3c(cc21)OCO3
A. criterion not met

Cited source for all entries: paper PMC9114115
